- test.details: Binding affinity to HCV NS3/4a protease by isothermal titration calorimetry
- Parameters: species or system Hepacivirus hominis
pKd: −log10 of the molar value.
quantity.measured: pKd

compound: C=CC1C[C@@]1(NC(=O)[C@@H]1C[C@@H](Oc2cc(-c3ccccc3)nc3cc(OC)ccc23)CN1C(=O)[C@@H](NC(=O)OC(C)(C)C)C(C)(C)C)C(=O)O (stereo not given in full)
pKd: 7.72

compound: C=CC1C[C@@]1(NC(=O)[C@@H]1C[C@@H](Oc2ccnc(-c3ccccc3)c2)CN1C(=O)[C@@H](NC(=O)OC(C)(C)C)C(C)(C)C)C(=O)O (stereo not given in full)
pKd: 6.08

compound: C=CC1C[C@@]1(NC(=O)[C@@H]1C[C@@H](Oc2cc(-c3ccccc3)nc3ccccc23)CN1C(=O)[C@H](CC)NC(=O)OC(C)(C)C)C(=O)O (stereo not given in full)
pKd: 6.05

(a) C=CC1C[C@@]1(NC(=O)[C@@H]1C[C@@H](Oc2cc(-c3ccccc3)nc3ccccc23)CN1C(=O)[C@@H](NC(=O)OC(C)(C)C)C(C)(C)C)C(=O)O (stereo not given in full)
(b) C=CC1C[C@@]1(NC(=O)[C@@H]1C[C@@H](Oc2cc(-c3ccccc3)nc3ccccc23)CN1C(=O)[C@H](C)NC(=O)OC(C)(C)C)C(=O)O (stereo not given in full)
(c) C=CC1C[C@@]1(NC(=O)[C@@H]1C[C@@H](Oc2ccnc3ccccc23)CN1C(=O)[C@@H](NC(=O)OC(C)(C)C)C(C)(C)C)C(=O)O (stereo not given in full)
(d) C=CC1C[C@@]1(NC(=O)[C@@H]1C[C@@H](Oc2ccncc2)CN1C(=O)[C@@H](NC(=O)OC(C)(C)C)C(C)(C)C)C(=O)O (stereo not given in full)
input: Please rank these compounds by pKd in descending order. // format: requested-order list of labels
output: a, c, b, d

(a) C=CC1C[C@@]1(NC(=O)[C@@H]1C[C@@H](Oc2cc(-c3ccccc3)nc3ccccc23)CN1C(=O)[C@@H](NC(=O)OC(C)(C)C)C(C)C)C(=O)O (stereo not given in full)
(b) C=CC1C[C@@]1(NC(=O)[C@@H]1C[C@@H](Oc2cc(-c3ccccc3)nc3ccccc23)CN1C(=O)CNC(=O)OC(C)(C)C)C(=O)O (stereo not given in full)
input: // which entry reports the smaller pKd, a or b ? Provide the label of your selected option as the answer.
output: b

---

- test.details: Inhibition of HCV NS3/4a protease using biotin-DDIVPCSMSY[125I]TW as substrate by radiometric assay
- Parameters: species or system Hepacivirus hominis
quantity.measured: Ki (nM)

(a) C=CC1C[C@@]1(NC(=O)[C@@H]1C[C@@H](Oc2ccncc2)CN1C(=O)[C@@H](NC(=O)OC(C)(C)C)C(C)(C)C)C(=O)O (some centres undefined)
(b) C=CC1C[C@@]1(NC(=O)[C@@H]1C[C@@H](Oc2ccnc3ccccc23)CN1C(=O)[C@@H](NC(=O)OC(C)(C)C)C(C)(C)C)C(=O)O (some centres undefined)
input: Which has the higher Ki, a or b ? Provide the label of your selected option as the answer.
output: a

(1) C=CC1C[C@@]1(NC(=O)[C@@H]1C[C@@H](Oc2cc(-c3ccccc3)nc3cc(OC)ccc23)CN1C(=O)[C@@H](NC(=O)OC(C)(C)C)C(C)(C)C)C(=O)O (some centres undefined)
(2) C=CC1C[C@@]1(NC(=O)[C@@H]1C[C@@H](Oc2ccnc3cc(OC)ccc23)CN1C(=O)[C@@H](NC(=O)OC(C)(C)C)C(C)(C)C)C(=O)O (some centres undefined)
input: // which entry reports the smaller Ki, 1 or 2 ? Provide the label of your selected option as the answer.
output: 1
(1: 20 nM, 2: 50 nM)
